# Test system: hTERT-HMEC;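 also: secreted proteins added to cultured cells, EdU pulse at the end, nuclei found by Hoechst imaging, EdU status from nuclear versus surrounding ring intensity ratio, PBS as neutral control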
# assayComment: percentage of EdU-negative (G0-arrested) nuclei per well, 72 h; higher = more G0 arrest
# experimentalContext: protein concentration 0.03125 µM; reference: sequence is the full UniProt precursor, the tested protein was the secreted form or ectodomain
measurementLabel: percentage of EdU-negative
Could you write the number and then its unit?

Below: 4 sequences and their reported percentage of EdU-negative.
{"sequenceContent": "MARSNLPLALGLALVAFCLLALPRDARARPQERMVGELRDLSPDDPQVQKAAQAAVASYNMGSNSIYYFRDTHIIKAQSQLVAGIKYFLTMEMGSTDCRKTRVTGDHVDLTTCPLAAGAQQEKLRCDFEVLVVPWQNSSQLLKHNCVQM", "percentage of EdU-negative": "5.74%"}
{"sequenceContent": "MLFSALLLEVIWILAADGGQHWTYEGPHGQDHWPASYPECGNNAQSPIDIQTDSVTFDPDLPALQPHGYDQPGTEPLDLHNNGHTVQLSLPSTLYLGGLPRKYVAAQLHLHWGQKGSPGGSEHQINSEATFAELHIVHYDSDSYDSLSEAAERPQGLAVLGILIEVGETKNIAYEHILSHLHEVRHKDQKTSVPPFNLRELLPKQLGQYFRYNGSLTTPPCYQSVLWTVFYRRSQISMEQLEKLQGTLFSTEEEPSKLLVQNYRALQPLNQRMVFASFIQAGSSYTTGEMLSLGVGILVGCLCLLLAVYFIARKIRKKRLENRKSVVFTSAQATTEA [Q9ULX7]", "percentage of EdU-negative": "4.94%"}
{"sequenceContent": "MSRLPVLLLLQLLVRPGLQAPMTQTTPLKTSWVNCSNMIDEIITHLKQPPLPLLDFNNLNGEDQDILMENNLRRPNLEAFNRAVKSLQNASAIESILKNLLPCLPLATAAPTRHPIHIKDGDWNEFRRKLTFYLKTLENAQAQQTTLSLAIF", "percentage of EdU-negative": "5.21%"}
{"sequenceContent": "MKFTIVFAGLLGVFLAPALANYNINVNDDNNNAGSGQQSVSVNNEHNVANVDNNNGWDSWNSIWDYGNGFAATRLFQKKTCIVHKMNKEVMPSIQSLDALVKEKKLQGKGPGGPPPKGLMYSVNPNKVDDLSKFGKNIANMCRGIPTYMAEEMQEASLFFYSGTCYTTSVLWIVDISFCGDTVEN [Q9NS71]", "percentage of EdU-negative": "4.8%"}

Please report the measured percentage of EdU-negative for MKALLALPLLLLLSTPPCAPQVSGIRGDALERFCLQQPLDCDDIYAQGYQSDGVYLIYPSGPSVPVPVFCDMTTEGGKWTVFQKRFNGSVSFFRGWNDYKLGFGRADGEYWLGLQNMHLLTLKQKYELRVDLEDFENNTAYAKYADFSISPNAVSAEEDGYTLFVAGFEDGGAGDSLSYHSGQKFSTFDRDQDLFVQNCAALSSGAFWFRSCHFANLNGFYLGGSHLSYANGINWAQWKGFYYSLKRTEMKIRRA
4.11%

Please report the measured percentage of EdU-negative for MGHPPLLPLLLLLHTCVPASWGLRCMQCKTNGDCRVEECALGQDLCRTTIVRLWEEGEELELVEKSCTHSEKTNRTLSYRTGLKITSLTEVVCGLDLCNQGNSGRAVTYSRSRYLECISCGSSDMSCERGRHQSLQCRSPEEQCLDVVTHWIQEGEEGRPKDDRHLRGCGYLPGCPGSNGFHNNDTFHFLKCCNTTKCNEGPILELENLPQNGRQCYSCKGNSTHGCSSEETFLIDCRGPMNQCLVATGTHEPKNQSYMVRGCATASMCQHAHLGDAFSMNHIDVSCCTKSGCNHPDLDVQYRSGAAPQPGPAHLSLTITLLMTARLWGGTLLWT
5.81%

Please report the measured percentage of EdU-negative for MALPFVLLMALVVLNCKSICSLGCDLPQTHSLSNRRTLMIMAQMGRISPFSCLKDRHDFGFPQEEFDGNQFQKAQAISVLHEMIQQTFNLFSTKDSSATWDETLLDKFYTELYQQLNDLEACMMQEVGVEDTPLMNVDSILTVRKYFQRITLYLTEKKYSPCAWEVVRAEIMRSFSLSANLQERLRRKE
22.9%

Please report the measured percentage of EdU-negative for MTSSLLLAFLLLAPTTVATPRAGGQCPACGGPTLELESQRELLLDLAKRSILDKLHLTQRPTLNRPVSRAALRTALQHLHGVPQGALLEDNREQECEIISFAETGLSTINQTRLDFHFSSDRTAGDREVQQASLMFFVQLPSNTTWTLKVRVLVLGPHNTNLTLATQYLLEVDASGWHQLPLGPEAQAACSQGHLTLELVLEGQVAQSSVILGGAAHRPFVAARVRVGGKHQIHRRGIDCQGGSRMCCRQEFFVDFREIGWHDWIIQPEGYAMNFCIGQCPLHIAGMPGIAASFHTAVLNLLKANTAAGTTGGGSCCVPTARRPLSLLYYDRDSNIVKTDIPDMVVEACGCS
4.58%

Please report the measured percentage of EdU-negative for MDRAARCSGASSLPLLLALALGLVILHCVVADGNSTRSPETNGLLCGDPEENCAATTTQSKRKGHFSRCPKQYKHYCIKGRCRFVVAEQTPSCVCDEGYIGARCERVDLFYLRGDRGQILVICLIAVMVVFIILVIGVCTCCHPLRKRRKRKKKEEEMETLGKDITPINEDIEETNIA
5.5%

Please report the measured percentage of EdU-negative for MLLLGAVLLLLALPGHDQETTTQGPGVLLPLPKGACTGWMAGIPGHPGHNGAPGRDGRDGTPGEKGEKGDPGLIGPKGDIGETGVPGAEGPRGFPGIQGRKGEPGEGAYVYRSAFSVGLETYVTIPNMPIRFTKIFYNQQNHYDGSTGKFHCNIPGLYYFAYHITVYMKDVKVSLFKKDKAMLFTYDQYQENNVDQASGSVLLHLEVGDQVWLQVYGEGERNGLYADNDNDSTFTGFLLYHDTN
5.07%

Please report the measured percentage of EdU-negative for MQAAWLLGALVVPQLLGFGHGARGAEREWEGGWGGAQEEEREREALMLKHLQEALGLPAGRGDENPAGTVEGKEDWEMEEDQGEEEEEEATPTPSSGPSPSPTPEDIVTYILGRLAGLDAGLHQLHVRLHALDTRVVELTQGLRQLRNAAGDTRDAVQALQEAQGRAEREHGRLEGCLKGLRLGHKCFLLSRDFEAQAAAQARCTARGGSLAQPADRQQMEALTRYLRAALAPYNWPVWLGVHDRRAEGLYLFENGQRVSFFAWHRSPRPELGAQPSASPHPLSPDQPNGGTLENCVAQASDDGSWWDHDCQRRLYYVCEFPF [Q9Y240]
6.19%

Please report the measured percentage of EdU-negative for MPAFNRLFPLASLVLIYWVSVCFPVCVEVPSETEAVQGNPMKLRCISCMKREEVEATTVVEWFYRPEGGKDFLIYEYRNGHQEVESPFQGRLQWNGSKDLQDVSITVLNVTLNDSGLYTCNVSREFEFEAHRPFVKTTRLIPLRVTEEAGEDFTSVVSEIMMYILLVFLTLWLLIEMIYCYRKVSKAEEAAQENASDYLAIPSENKENSAVPVEE [Q9NY72]
4.7%
